system: P. falciparum NF54 hsp86-PpyRE13 gametocytes; experiment: P. falciparum gametocyte luminescence assay (PfLuc), line NF54 hsp86-PpyRE13; assay type: cell-based, Plasmodium falciparum; conditions: gametocytes, line NF54 HSP86; read-out: Pf Gametocytes NF54 HSP86 (IC50 nM)
value.type: IC50
Could you write the number and then its unit?

Exercise: Look up and report measured IC50 for this entry: O=S(=O)(NCC1(O)CCOc2ccccc21)c1ccc(Br)s1 (stereo not shown) [Compound 84, reference compound]
Solution: 29600 nM

----------
system: HeLa cells; test: HeLa cell proliferation assay (CellTiter Glo); type: cell-based, human; conditions: Homo sapiens
value.type: IC50 (nM)
# number only, unit nM dropped from output

Worked cases, IC50 given:
Exercise: Look up and report measured IC50 for this entry: COc1ccc(NC(=O)Nc2ccc(Nc3nc(C)cc(Nc4ccc(C)cc4)n3)cc2)cc1 [Compound 65]
Solution: 4500

Exercise: Read the entry COc1ccccc1Cn1cc2c(-c3ccc(F)cc3)nnc-2c2cc(OC)c(OC)cc21 [Compound 31] and write its reported IC50.
Solution: 5000

Exercise: State, in one line, measured IC50 of OC(c1ccc(Cl)cc1)C1CCN(CCCN2CCC(C(O)c3ccc(Cl)cc3)CC2)CC1 (stereo not drawn) [Compound 13]
Solution: 4510

Continuing:
Exercise: Give IC50 for the following molecule: Cc1ccc2nc(-c3ccccc3)c(CSc3cccc[n+]3[O-])n2c1 [Compound 16]
Solution: 9510

Exercise: For Cc1ccc(Nc2cc(C)nc(Nc3ccc(NC(=O)c4cc5ccccc5oc4=O)cc3)n2)cc1 [Compound 63] , write its IC50.
Solution: 8690

Exercise: Specify IC50 for O=C(c1ccc([N+](=O)[O-])o1)N1CCC(Cn2cnc3ccccc32)CC1 [Compound 69] and stop.
Solution: 11300

Exercise: Consider the molecule COc1ccc(Nc2cc(C)nc(Nc3ccc(NC(=O)c4cc(C)cc(C)c4)cc3)n2)cc1 [Compound 64] and give its recorded IC50.
Solution: 8100

Exercise: Using the record for Clc1ccc(Nc2nc(-c3ccccn3)cs2)nc1 [Compound 39] , state its measured IC50.
Solution: 2950

Exercise: Identify measured IC50 corresponding to COc1cc(CNCC2CCNCC2)ccc1OCc1cccc(Cl)c1 [Compound 53]
Solution: 5340

----------
tested on: P. falciparum NF54 hsp86-PpyRE13 gametocytes; experiment: P. falciparum gametocyte luminescence assay (PfLuc), line NF54 hsp86-PpyRE13; type: cell-based, Plasmodium falciparum; settings: Plasmodium falciparum, NF54, read-out: Pf Gametocytes NF54 HSP86 (IC50 nM)
value.type: IC50 (nM)
# unit: nM | format: bare number

Exercise: Please report the measured IC50 for Cc1ccc(Nc2cc(C)nc(Nc3ccc(NC(=O)c4cc5ccccc5oc4=O)cc3)n2)cc1 [Compound 63]
Solution: 1870

Exercise: Return IC50 (reported value) for this compound: COc1ccccc1Cn1cc2c(-c3ccc(F)cc3)nnc-2c2cc(OC)c(OC)cc21 [Compound 31]
Solution: 496

Exercise: Supply IC50 value. Item: Cc1ccc2nc(-c3ccccc3)c(CSc3cccc[n+]3[O-])n2c1 [Compound 16]
Solution: 219

Exercise: Fill in reported IC50 for this entry: COc1cc(CNCC2CCNCC2)ccc1OCc1cccc(Cl)c1 [Compound 53]
Solution: 1820

Exercise: Identify the reported IC50 for the following entry. COc1ccc(NC(=O)Nc2ccc(Nc3nc(C)cc(Nc4ccc(C)cc4)n3)cc2)cc1 [Compound 65]
Solution: 431

Exercise: Please supply the value of reported IC50 for the item O=C(c1ccc([N+](=O)[O-])o1)N1CCC(Cn2cnc3ccccc32)CC1 [Compound 69]
Solution: 1500
